Values from paper PMC6591174

- TEST_SYSTEM: Rat AR ligand-binding domains (His-GST-ARLBD) (Rattus norvegicus, UniProt P15207)
- Construct: purchased Invitrogen
- Sequence (P15207 651-882 limits assumed): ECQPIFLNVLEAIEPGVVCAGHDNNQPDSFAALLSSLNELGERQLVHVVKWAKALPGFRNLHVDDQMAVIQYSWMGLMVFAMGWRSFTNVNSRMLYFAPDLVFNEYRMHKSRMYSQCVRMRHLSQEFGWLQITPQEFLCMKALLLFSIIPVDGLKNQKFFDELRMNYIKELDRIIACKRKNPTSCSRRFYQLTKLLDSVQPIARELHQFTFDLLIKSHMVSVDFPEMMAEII
- ASSAY_EXPLANATION: AR fluorescence polarization-based competitive hormone-binding assay (PolarScreen AR Competitor Assay, Red)
OBSERVED_PROPERTY: pIC50
Bear in mind: pIC50 is minus log10 of a mol/L concentration; give just that figure.

### Prompt Request the reported pIC50 associated with C[C@@H]1CC2=CC(=O)CC[C@@H]2[C@H]2CC[C@@]3(C)[C@@H](CC[C@]3(C)O)[C@@H]21
### Response 7.93

* * *

- Test system: ZR-75-1 cells
- ASSAY_EXPLANATION: Cell proliferation assay (CCK8), ZR-75-1
- Format: cell-based, human
- EXPERIMENTAL_SETUP: 100 nM compound with 100 nM OH-Flutamide
OBSERVED_PROPERTY: antiproliferative effect in presence of OH-Flutamide, ZR-75-1

- COMPOUND: "C[C@]12CC[C@H]3[C@@H](CCC4=C(O)C(=O)CC[C@@]43C)[C@@H]1CC[C@@H]2O [4-OHT, 4-hydroxytestosterone]"
  REPORTED_VALUE: "behave like DHT"
- COMPOUND: "C=C1C[C@H]2[C@@H]3CC[C@H](O)[C@@]3(C)CC[C@@H]2[C@@]2(C)C=CC(=O)C=C12 [17-HEXE, 17-hydroexemestane]"
  REPORTED_VALUE: "behave like DHT"
